Values from patent US10981926B2

Assignment: determine reported log10 of IC50 for the given compounds.
assay-system: F876L mutant Androgen Receptor (AR-F876L) (Homo sapiens (Human), UniProt P10275, F877L)
Sequence (P10275 whole entry F877L): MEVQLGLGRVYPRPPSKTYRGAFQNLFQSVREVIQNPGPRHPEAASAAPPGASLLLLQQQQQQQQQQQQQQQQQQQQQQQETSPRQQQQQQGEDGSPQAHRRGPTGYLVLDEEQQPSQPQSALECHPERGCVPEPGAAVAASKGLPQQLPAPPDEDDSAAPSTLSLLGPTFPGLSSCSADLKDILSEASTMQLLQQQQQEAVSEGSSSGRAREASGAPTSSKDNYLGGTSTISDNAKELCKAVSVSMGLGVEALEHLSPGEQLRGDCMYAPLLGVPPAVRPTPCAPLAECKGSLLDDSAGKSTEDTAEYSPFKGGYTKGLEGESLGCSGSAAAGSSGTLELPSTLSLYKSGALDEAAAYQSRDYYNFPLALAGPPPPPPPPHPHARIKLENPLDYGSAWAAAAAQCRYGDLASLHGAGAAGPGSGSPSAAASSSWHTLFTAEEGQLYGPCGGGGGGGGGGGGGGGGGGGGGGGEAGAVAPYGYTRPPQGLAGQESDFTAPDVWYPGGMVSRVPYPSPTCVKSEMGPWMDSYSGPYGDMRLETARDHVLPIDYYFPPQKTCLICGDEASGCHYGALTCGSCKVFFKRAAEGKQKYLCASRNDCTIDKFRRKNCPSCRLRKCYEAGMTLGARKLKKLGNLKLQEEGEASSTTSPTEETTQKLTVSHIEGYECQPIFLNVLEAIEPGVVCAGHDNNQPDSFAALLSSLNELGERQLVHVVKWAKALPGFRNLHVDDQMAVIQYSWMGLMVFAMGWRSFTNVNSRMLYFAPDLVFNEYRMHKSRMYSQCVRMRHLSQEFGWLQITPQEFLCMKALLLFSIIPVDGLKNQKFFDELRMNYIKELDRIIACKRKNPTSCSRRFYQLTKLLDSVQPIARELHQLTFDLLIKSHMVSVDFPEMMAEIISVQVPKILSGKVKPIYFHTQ
protocol-details: LNCaP-AR-F876L ANT reporter assay (antagonist mode)
Assay type: cell-based
experimental-parameters: antagonist mode; pIC50 = −Log10(IC50 in Molar); read-out: LNCaP-AR-F876L ANT pIC50 (converted)
Quick note: numbers are log10 of IC50, with µM as the unit.

Given the compound N#Cc1ncc(N2C(=O)C3(CCC3)N(c3ccc(OC4CCNCC4(F)F)cc3)C2=S)cc1C(F)(F)F (racemic) , what is its reported log10 of IC50?
-0.90

What do you have for CC(=O)N1CCC(Cn2ncc3cc(N4C(=S)N(c5cnc(C#N)c(C(F)(F)F)c5)C(=O)C45CCC5)ccc32)CC1 ?
-1.40

Then this compound: COc1cc(N2C(=O)C3(CCC3)N(c3ccc4nn(C5CCN(C)CC5)cc4c3)C2=S)cnc1C#N
-0.62

What would you report for Cc1cc(N2C(=O)C3(CCC3)N(c3ccc(N4CCNC4=O)cc3)C2=S)cnc1C#N ?
-0.24

Request: CNC1CCC(Oc2ccc(N3C(=S)N(c4cnc(C#N)c(C(F)(F)F)c4)C(=O)C34CCC4)cc2)CC1 (stereo not shown)
-1.95

What do you get for CN1CC(CCOc2ccc(N3C(=S)N(c4cnc(C#N)c(C(F)(F)F)c4)C(=O)C34CCC4)cc2)C1 ?
-0.93

// same read-out, input: N#CCN1CCC(Oc2ccc(N3C(=S)N(c4cnc(C#N)c(Cl)c4)C(=O)C34CCC4)cc2)CC1
-1.61

Same read-out for CN1CC[C@@H](Oc2ccc(N3C(=S)N(c4cnc(C#N)c(C(F)(F)F)c4)C(=O)C34CCC4)cc2)C1 ?
-0.44

Please do the same for CN1CC[C@@H](Oc2ccc(N3C(=S)N(c4cnc(C#N)c(C(F)(F)F)c4)C(=O)C34CCC4)cc2)C[C@H]1CO (racemic) as well.
-1.44

Lookup Cc1nc2cc(N3C(=S)N(c4cnc(C#N)c(C(F)(F)F)c4)C(=O)C34CCC4)ccc2[nH]1
-0.82

Another compound to check: CN1CCC(n2ncc3cc(N4C(=S)N(c5cnc(C#N)c(Cl)c5)C(=O)C45CCC5)ccc32)CC1
-0.56

Now give it for COc1cc(N2C(=O)C3(CCC3)N(c3ccc(OC4CCNCC4)cc3)C2=S)cnc1C#N too.
-0.57

Would you kindly repeat that for C#CCN1CCC(Oc2ccc(N3C(=S)N(c4cnc(C#N)c(C(F)(F)F)c4)C(=O)C34CCC4)cn2)CC1 ?
-1.38

Cool, now N#Cc1ncc(N2C(=O)C3(CCC3)N(c3ccc(C(=O)NCC4CCNCC4)c(F)c3)C2=S)cc1C(F)(F)F
-0.23

Another compound: N#Cc1ncc(N2C(=O)C3(CCC3)N(c3ccc(O[C@@H]4CCN[C@H](CO)C4)cc3)C2=S)cc1C(F)(F)F (racemic)
-0.64

And the next one, N#Cc1ncc(N2C(=O)C3(CCC3)N(c3ccc4c(cnn4C4CCNCC4)c3)C2=S)cc1C(F)(F)F ?
-0.71

Can you handle N#Cc1ncc(N2C(=O)C3(CCC3)N(c3ccc(OC4CC5CC4CN5)nc3)C2=S)cc1C(F)(F)F (stereo not shown) next?
-0.50

Try Cn1cnc2cc(N3C(=S)N(c4cnc(C#N)c(C(F)(F)F)c4)C(=O)C34CCC4)ccc21 next.
-0.61

Param item: CN1CCC(Oc2ccc(N3C(=S)N(c4cnc(C#N)c(C(F)F)c4)C(=O)C34CCC4)cc2)CC1
-0.59
